- Assay text: Plasma pharmacokinetics in healthy volunteers (LC-MS/MS, non-compartmental analysis)
- Assay setup: human, plasma, po, 400 mg, Cmax, celecoxib levels in plasma; C alone, celecoxib 400 mg single oral dose; geometric mean (min, max)

{"columns": ["Compound", "Units of measure", "Cmax"],
 "data": [
  ["Cc1ccc(-c2cc(C(F)(F)F)nn2-c2ccc(S(N)(=O)=O)cc2)cc1 [Celecoxib, celecoxib]", "ng/mL", 1140]
]}

* * *

- Assay text: clinical
- Assay setup: human, in vivo, po, 10 mg/kg, AUC(0–8)
Measured metric: AUC(0-t)

{"columns": ["Smiles notation", "Assay value"],
 "data": [
  ["CO[C@H]1/C=C/O[C@@]2(C)Oc3c(C)c(O)c4c(O)c(c(/C=N/N5CCN(C)CC5)c(O)c4c3C2=O)NC(=O)/C(C)=C\\C=C\\[C@H](C)[C@H](O)[C@@H](C)[C@@H](O)[C@@H](C)[C@H](OC(C)=O)[C@@H]1C", "92300 ng·h/mL"]
]}

* * *

- Assay text: Plasma pharmacokinetics in healthy volunteers (LC-MS/MS, non-compartmental analysis)
- Assay setup: human, plasma, po, Cmax, celecoxib levels in plasma; PZA + C, celecoxib 400 mg with pyrazinamide 25 mg/kg oral; geometric mean (min, max)
Measured metric: Cmax (ng/mL)

{"columns": ["Compound", "Measured metric", "Units of measure", "Assay value"],
 "data": [
  ["Cc1ccc(-c2cc(C(F)(F)F)nn2-c2ccc(S(N)(=O)=O)cc2)cc1 [Celecoxib, celecoxib]", "Cmax", "ng/mL", 760]
]}

* * *

- Assay text: Plasma pharmacokinetics in healthy volunteers (LC-MS/MS, non-compartmental analysis)
- Assay setup: human, plasma, po, 25 mg/kg, t1/2, pyrazinamide levels in plasma; PZA alone, 25 mg/kg single oral dose; mean (SD)

{"columns": ["Compound", "half-life, h"],
 "data": [
  ["NC(=O)c1cnccn1 [Pyrazinamide, pyrazinamide]", 11.4]
]}

* * *

- Assay text: Plasma pharmacokinetics in healthy volunteers (LC-MS/MS, non-compartmental analysis)
- Assay setup: human, plasma, po, AUC(0–8), celecoxib levels in plasma; PZA + C, celecoxib 400 mg with pyrazinamide 25 mg/kg oral; geometric mean (min, max)

{"columns": ["Smiles notation", "Units of measure", "AUC(0-t)"],
 "data": [
  ["Cc1ccc(-c2cc(C(F)(F)F)nn2-c2ccc(S(N)(=O)=O)cc2)cc1", "µg·h/mL", 4.23]
]}

* * *

- Assay text: Plasma pharmacokinetics in healthy volunteers (LC-MS/MS, non-compartmental analysis)
- Assay setup: human, plasma, po, Tmax, celecoxib levels in plasma; PZA + C, celecoxib 400 mg with pyrazinamide 25 mg/kg oral; median (min, max)

{"columns": ["Smiles notation", "Tmax [h]"],
 "data": [
  ["Cc1ccc(-c2cc(C(F)(F)F)nn2-c2ccc(S(N)(=O)=O)cc2)cc1", 3]
]}

* * *

- Assay text: Plasma pharmacokinetics in healthy volunteers (LC-MS/MS, non-compartmental analysis)
- Assay setup: human, plasma, po, Cmax, celecoxib levels in plasma; RIF + C, celecoxib 400 mg with rifampicin 10 mg/kg oral; geometric mean (min, max)
Measured metric: Cmax (ng/mL)

{"columns": ["Compound", "Assay value"],
 "data": [
  ["Cc1ccc(-c2cc(C(F)(F)F)nn2-c2ccc(S(N)(=O)=O)cc2)cc1 [Celecoxib, celecoxib]", 890]
]}
